- SYSTEM_UNDER_TEST: 5-hydroxytryptamine receptor 3A (Homo sapiens)
- PROCEDURE_TEXT: Binding affinity to human 5HT3A expressed in COS7 cells at 100 nM after 1 hr by fluorescence microscopy
- Type: cell-based
- CONDITION_INFO: COS-7
Calls of active or inactive are those of the source. The calls are words filed in the database; no cut-off is given here.
Your reply should match one of these outcome classes. active, inactive

Use the examples below as a reference point.
chem_smiles=CC1=CC(C)=[N+]2C1=C(CCCOC(=O)CCCn1nc(C(=O)N[C@@H]3C[C@H]4CCC[C@@H](C3)N4C)c3ccccc31)c1c(C)cc(C)n1[B-]2(F)F classification=active
chem_smiles=CN1[C@@H]2CCC[C@H]1C[C@H](NC(=O)c1nn(CCCCNC(=S)Nc3ccc(-c4c5ccc(=O)cc-5oc5cc(O)ccc45)c(C(=O)O)c3)c3ccccc13)C2 classification=active
chem_smiles=CN1[C@@H]2CCC[C@H]1C[C@H](NC(=O)c1nn(CCCNc3ccc([N+](=O)[O-])c4nonc34)c3ccccc13)C2 classification=inactive

Shifting focus to the compound that follows.
Which outcome was entered for the compound "CCN(CC)c1ccc2cc(C(=O)NCCCCn3nc(C(=O)N[C@@H]4C[C@H]5CCC[C@@H](C4)N5C)c4ccccc43)c(=O)oc2c1" in this test? inactive

---

- SYSTEM_UNDER_TEST: 5-hydroxytryptamine receptor 3A (Homo sapiens) (UniProt P46098)
- Sequence (whole entry): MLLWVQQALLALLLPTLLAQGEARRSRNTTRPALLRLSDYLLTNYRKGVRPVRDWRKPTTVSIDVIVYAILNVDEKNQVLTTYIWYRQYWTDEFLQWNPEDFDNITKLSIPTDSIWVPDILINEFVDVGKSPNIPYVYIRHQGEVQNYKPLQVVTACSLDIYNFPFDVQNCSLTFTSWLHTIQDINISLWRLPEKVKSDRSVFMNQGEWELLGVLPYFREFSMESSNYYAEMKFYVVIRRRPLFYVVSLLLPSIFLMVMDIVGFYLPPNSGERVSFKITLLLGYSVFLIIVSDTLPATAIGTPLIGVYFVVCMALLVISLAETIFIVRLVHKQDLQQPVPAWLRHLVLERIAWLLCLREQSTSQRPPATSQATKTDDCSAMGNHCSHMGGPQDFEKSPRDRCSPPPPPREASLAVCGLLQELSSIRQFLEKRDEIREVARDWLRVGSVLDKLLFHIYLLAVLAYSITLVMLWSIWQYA
- PROCEDURE_TEXT: Binding affinity to human 5HT3A expressed in COS7 cells at 100 nM after 1 hr by fluorescence microscopy
- Assay type: cell-based
- CONDITION_INFO: COS-7
Calls of active or inactive are those of the source. The rule behind the calls is not given here.
Your reply should match one of these outcome classes. active, inactive

chem_smiles=CCN(CC)c1ccc2cc(C(=O)NCCOc3cccc4c(C(=O)N[C@@H]5C[C@H]6CCC[C@@H](C5)N6C)nn(C)c34)c(=O)oc2c1 classification=inactive
chem_smiles=CN(C)c1cccc2c(S(=O)(=O)NCCCn3nc(C(=O)N[C@H]4C[C@H]5CCC[C@@H](C4)N5C)c4ccccc43)cccc12 classification=inactive

Shifting focus to the molecule that follows.
Which outcome was entered for the molecule "CN1[C@@H]2CCC[C@H]1C[C@H](NC(=O)c1nn(CCCNC(=S)Nc3ccc(-c4c5ccc(=O)cc-5oc5cc(O)ccc45)c(C(=O)O)c3)c3ccccc13)C2" in this test? active
